The origin of these recorded values is patent US7863325B2.

The reader will find reported solubility values listed item by item below.
- Test Details: Solubility in different solvents (aliquot addition until dissolution)
- Type: physicochemical
- Condition Label: organic solvent or mixture, thermodynamic from solid, Tetrahydrofuran (THF)

Compound	solubility
O.O.O=c1c(-c2ccc(O)cc2)coc2cc(O)cc(O)c12.[Na] [genistein sodium salt dihydrate]	< 10.4 mg/mL

For the compound O=c1c(-c2ccc(O)cc2)coc2cc(O)cc(O)c12 , what solubility is on record?
26.3 mg/mL

---

- Test Details: Solubility in different solvents (aliquot addition until dissolution)
- Assay type: physicochemical
- Condition Label: organic solvent or mixture, thermodynamic from solid, Acetone/IPA (50:50)
solubility listing for selected molecules.
Reply with just the number (in mg/mL).

Molecule	Observed Measurement
O.O.O=c1c(-c2ccc(O)cc2)coc2cc(O)cc(O)c12.[Na] [genistein sodium salt dihydrate]	20.2

Continue with the next molecule.
What measured solubility goes with O=c1c(-c2ccc(O)cc2)coc2cc(O)cc(O)c12 ?
20.1
